Recorded measurements of protein stability index, one per entry
experiment: protein stability index of a GFP-peptide fusion (GPS, HEK-293T) (PSI 1-6); higher = more stable; settings: treatment: DMSO; c terminus: a fixed tail appended;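 further: 24-mer peptide tiles fused after GFP, lentivirally expressed, FACS-sorted into six equal bins by GFP/DsRed ratio, decoded by Illumina sequencing, PSI is the read-weighted mean bin number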

{"Sequence Chain": "FNNGEYAEAEALYSAYIRRCACAA [TTC32]", "protein stability index": 2.39}
{"Sequence Chain": "NGITQGDKLRALKSQRQPRTSPSC [CDC14A]", "protein stability index": 4.16}
{"Sequence Chain": "CLRVGMLKEGVRLDRVRGGRQKYK [ESRRA]", "protein stability index": 3.12}
{"Sequence Chain": "AQLYEDFLFPIDISLVKREHDFLD [DLC1]", "protein stability index": 2.52}
{"Sequence Chain": "ARRYAGPLHHQTQRFRLDNLLNMA [ELAVL3]", "protein stability index": 2.78}
{"Sequence Chain": "HLRNKTEDLEATSEHFKTTSQKVA [VAMP8]", "protein stability index": 5.01}
{"Sequence Chain": "ADSSAQAAAQAPENFQEGKDMSES [TAF7L]", "protein stability index": 5.72}
{"Sequence Chain": "SASLEVVKKDHVALQVPRGKEDST [CBY2]", "protein stability index": 5.4}
{"Sequence Chain": "VLTDSEGWILIDRCGKHFGTILNY [KCTD10]", "protein stability index": 2.37}
{"Sequence Chain": "PPHKHVARPTEVLAGTQLLYAFFT [TRIB3]", "protein stability index": 2.46}
{"Sequence Chain": "LTFHGLILRSQLVTLLVRGVCYSE [CLCN6]", "protein stability index": 2.98}
{"Sequence Chain": "PSSLMETLEQHLNTLEGKKPGNNE [SNAP91]", "protein stability index": 5.17}
{"Sequence Chain": "CSHSFLLAVMGYDRYIAICNPLRY [OR10K2]", "protein stability index": 2.87}
{"Sequence Chain": "LASDKTSAGNAPLNEEINIASSDS [C18orf25]", "protein stability index": 5.48}
{"Sequence Chain": "YYGFSESAESQGLDGAGLMGFVPH [ADAMTSL2]", "protein stability index": 3}
{"Sequence Chain": "KGNTTLQQLDLRWNNVGLLGGRAL [LRRC45]", "protein stability index": 2.68}
{"Sequence Chain": "QQACTHTKETEQLRSQLQTLKQQH [CCDC89]", "protein stability index": 4.71}
{"Sequence Chain": "KTKTSEYPIIFVYYLRKGKKINSN [SPANXN3]", "protein stability index": 2.37}
{"Sequence Chain": "HHSLQAHFRPRFHPLPTVIIVNLL [TMEM192]", "protein stability index": 2.68}
{"Sequence Chain": "FQNFSLHDPLYGKLFSTYLRPPHT [LPCAT4]", "protein stability index": 2.27}
{"Sequence Chain": "ISWAFTDRPDLSLTVLPKLQARER [C2CD2L]", "protein stability index": 2.68}
{"Sequence Chain": "EGSLCAAHLPKAQLSGYAVEATRN [FBF1]", "protein stability index": 4.01}
{"Sequence Chain": "FGDSPKAEKRQIGDQEGPRPARST [FBF1]", "protein stability index": 5.11}
{"Sequence Chain": "DRILERIEDSTGLNRPGPAPLSSR [TCF25]", "protein stability index": 4.47}
{"Sequence Chain": "IGTQGPLENTYRDFWLMVWEQKVL [PTPN9]", "protein stability index": 2.31}
{"Sequence Chain": "EEELQEIASEPTNKHLFYAEDFST [MATN2]", "protein stability index": 5.26}
{"Sequence Chain": "DLIDNLKEAQYIRTERVEQAFRAI [PCMTD1]", "protein stability index": 2.29}
{"Sequence Chain": "TRRAQADLAYQLQVAKTKQQIEEQ [FLOT1]", "protein stability index": 4.82}

====

experiment: protein stability index of a GFP-peptide fusion (GPS, HEK-293T) (PSI 1-6); higher = more stable; details: treatment: MLN4924 1 uM, 8 h; c terminus: a fixed tail appended

{"Sequence Chain": "VCDSCHEAITDEERAPTATFHDSK [WDFY2]", "protein stability index": 5.16}
{"Sequence Chain": "RKRIRTYLKSCRRMKKNGMEMTRP [NOL4L]", "protein stability index": 3.32}
{"Sequence Chain": "IQDKLFQVAKREREAATKHSKASL [CHCHD6]", "protein stability index": 4.14}
{"Sequence Chain": "AYIQCQFEDLNKRKDTKEIYTHFT [GNAI1]", "protein stability index": 2.25}
{"Sequence Chain": "AAAPVAEVPTAAGALTPTPAPTTT [CLPTM1]", "protein stability index": 5.25}
{"Sequence Chain": "PPKWQIGEQEFEALMRMLDNLGYR [ADD1]", "protein stability index": 2.58}
{"Sequence Chain": "DTVTIPVPSEEPQESDQTEEHESG [IQUB]", "protein stability index": 5.72}
{"Sequence Chain": "GKLSWGTMARALGRFKLSIPHTHL [WDR88]", "protein stability index": 2.13}
{"Sequence Chain": "SGTIMKIGIEAKNLASYDVCSILL [MCOLN1]", "protein stability index": 2.64}
{"Sequence Chain": "YYGFSESAESQGLDGAGLMGFVPH [ADAMTSL2]", "protein stability index": 3}
{"Sequence Chain": "GFEFSVPFTEMKLRPRNFRSPAGG [TNXB]", "protein stability index": 3.66}
{"Sequence Chain": "LGLGTRESHSCPQQVPMPPGQEAQ [NEK8]", "protein stability index": 4.87}
{"Sequence Chain": "VSTNTAMIQTSKTEITELRRTLQG [KRT13]", "protein stability index": 4.06}
{"Sequence Chain": "LTLCRSDLEAQMESLKEELLSLKQ [KRT33B]", "protein stability index": 2.8}
{"Sequence Chain": "KYKSFNRTAMPYGGYEKASKRMTF [MYOZ1]", "protein stability index": 2.57}
{"Sequence Chain": "LLSIGPELPKPEVISQLEQGTELW [ZNF8]", "protein stability index": 3.54}

====

The reader will find reported protein stability index values listed item by item below.
assay: protein stability index of a GFP-peptide fusion (GPS, HEK-293T) (PSI 1-6); higher = more stable; settings: treatment: DMSO; c terminus: a fixed tail appended
Reported Metric: protein stability index

{"Sequence Chain": "METGRWKKINTEGDVPPSMSGSCA [KLHDC2]", "Reported Metric": "protein stability index", "Reading": 4.01}
{"Sequence Chain": "APLSNGLCCAFSTDGSVLAAGTHD [WSB1]", "Reported Metric": "protein stability index", "Reading": 4.06}
{"Sequence Chain": "DTAHDFRAKCRNMEHALREKAKAF [TRIM35]", "Reported Metric": "protein stability index", "Reading": 3.18}
{"Sequence Chain": "LQAKQDGKKDVSHSSPVDLKIPQV [LCOR]", "Reported Metric": "protein stability index", "Reading": 4.94}
{"Sequence Chain": "RTNDGKITYPPGVKEISDKISKEE [PDS5B]", "Reported Metric": "protein stability index", "Reading": 5.02}
{"Sequence Chain": "FLYMLMEYVPGGELFSYLRNRGRF [PRKX]", "Reported Metric": "protein stability index", "Reading": 2.75}
{"Sequence Chain": "ASLLHLAVEAGQEECAKWLLLNNA [RIPK4]", "Reported Metric": "protein stability index", "Reading": 2.17}
{"Sequence Chain": "EDELSLVKGSRVTVMEKCSDGWWR [NCK2]", "Reported Metric": "protein stability index", "Reading": 3.68}
{"Sequence Chain": "HYPFLGAMGDHSKKKPGTAMCVGC [ISL2]", "Reported Metric": "protein stability index", "Reading": 2.86}
{"Sequence Chain": "RMIPGQPPASARRLSVPRDSACDE [IRX6]", "Reported Metric": "protein stability index", "Reading": 5.29}
{"Sequence Chain": "VDYPLHDLVLHTNYTATVRGLRGP [TNXB]", "Reported Metric": "protein stability index", "Reading": 2.71}
{"Sequence Chain": "PSPAAVPRPPSNPPARGTLKTSNL [TRAF3IP2]", "Reported Metric": "protein stability index", "Reading": 5.12}
{"Sequence Chain": "FALQSDLDQPAFQQLVSFSESGSL [ISL2]", "Reported Metric": "protein stability index", "Reading": 2.91}
{"Sequence Chain": "IEGLKEELAYLRKNHEEEMLALRG [KRT16]", "Reported Metric": "protein stability index", "Reading": 3.79}
{"Sequence Chain": "SQLPQVLHVSLGQKLVAAYVLGLL [MOSPD3]", "Reported Metric": "protein stability index", "Reading": 3.26}
{"Sequence Chain": "ELKVKDSQPIDLSACTVALHIFQL [TRIP13]", "Reported Metric": "protein stability index", "Reading": 2.58}
{"Sequence Chain": "ARSVGLKWRKVGRSLQRGCRALRD [TRADD]", "Reported Metric": "protein stability index", "Reading": 2.57}
{"Sequence Chain": "TAAFTTAKAAALSTKTPAPCSEFM [SPAG8]", "Reported Metric": "protein stability index", "Reading": 3.67}
{"Sequence Chain": "ETKLDLISKGEEPRAGKEESGVSV [SLC29A1]", "Reported Metric": "protein stability index", "Reading": 5.44}
{"Sequence Chain": "VSYQLADGGEPQSVQVDGQARTQK [TNXB]", "Reported Metric": "protein stability index", "Reading": 5.18}
{"Sequence Chain": "AGALAQGGGPSATEWACILRRKTP [C6orf223]", "Reported Metric": "protein stability index", "Reading": 3.56}
{"Sequence Chain": "GFAFITFENPADAKNAAKDMNGKS [RBMY1A1]", "Reported Metric": "protein stability index", "Reading": 3.55}
{"Sequence Chain": "EEEGFGSSSPVKSPAAPYFLGSSF [WEE1]", "Reported Metric": "protein stability index", "Reading": 3.73}
{"Sequence Chain": "GRGPPSEPVLTQTSEQAPSSAPRD [PTPRD]", "Reported Metric": "protein stability index", "Reading": 5.74}
{"Sequence Chain": "VRFSLGTTTHAPPGVHRRYSALRE [PPFIA4]", "Reported Metric": "protein stability index", "Reading": 2.72}
{"Sequence Chain": "RKLLEGEESRISVPVHSFASLNIK [PRPH]", "Reported Metric": "protein stability index", "Reading": 2.96}
{"Sequence Chain": "EDMEASDYELEDETRPAKRITITE [WEE1]", "Reported Metric": "protein stability index", "Reading": 5.42}
{"Sequence Chain": "PGACPALGTKSCSSSCAVHDLIFW [RTN3]", "Reported Metric": "protein stability index", "Reading": 2.35}
{"Sequence Chain": "EPPVTMIFMGYQNVEDEAETKKVL [PALM]", "Reported Metric": "protein stability index", "Reading": 4.07}
{"Sequence Chain": "LAARVIVNHRIYYKGHIPEKLETF [FEM1C]", "Reported Metric": "protein stability index", "Reading": 2.82}
{"Sequence Chain": "RPISGTAVAHKTPRCPGSVNEKLP [SMOC2]", "Reported Metric": "protein stability index", "Reading": 4.53}
